Reference for the values: patent US4835160A

Test system: leukemia P 388
assay: Test of leukemia P 388; IP/IP, D1-5
Assay type: in vivo, CDF1 hybrid mice
reported-conditions: 10 mg/kg IP, D1-D5
So basically, if Variation by weight comes in under -0.9 g it's rule met, and if it's -0.9 g or more it's rule not met.

compound: Cc1cnc(NCCCN(C)C)c2c3cc(O)ccc3n(C)c12 [Derivative No. 15]
assigned-category: rule met
//
compound: Cc1cnc(NCCCN(C)C)c2c3cc(O)ccc3n(C)c12 [Derivative No. 14]
assigned-category: rule met
//
compound: CCN(CC)CCNc1ncc(C)c2c1c1cc(O)ccc1n2C.Cl.Cl [Derivative No. 19]
assigned-category: rule not met
//
compound: CCN(CC)CCCNc1ncc(C)c2[nH]c3ccc(O)cc3c12 [Derivative No. 7]
assigned-category: rule not met
//
compound: CCN(CC)CCCNc1ncc(C)c2[nH]c3ccc(O)cc3c12 [Derivative No. 8]
assigned-category: rule met

====

Test system: leukemia P 388
assay: Test of leukemia P 388; IP/IP, D1-5
Assay type: in vivo, CDF1 hybrid mice
reported-conditions: 5 mg/kg IP, D1-D5
Reported Variation by weight values for a set of compounds

compound: CCN(CC)CCCNc1ncc(C)c2[nH]c3ccc(O)cc3c12
Variation by weight [g]: -0.8
//
compound: Cc1cnc(NCCCN(C)C)c2c3cc(O)ccc3n(C)c12 [Derivative No. 15]
Variation by weight [g]: -2.5
//
compound: Cc1cnc(NCCCN(C)C)c2c3cc(O)ccc3n(C)c12 [Derivative No. 14]
Variation by weight [g]: -1.0
//
compound: CCN(CC)CCCNc1ncc(C)c2c1c1cc(O)ccc1n2C
Variation by weight [g]: -1.9

====

Test system: melanoma B 16
assay: Test for melanoma B 16
Format: in vivo, BDF1 hybrid mice
reported-conditions: 5 mg/kg IP, D1-D9
Parameter threshold = 40 days. Response is Met when Median day of survival meets or exceeds it, else Not met.

compound: Cc1cnc(NCCCN(C)C)c2c1[nH]c1ccc(O)cc12 [Derivative No. 10]
assigned-category: Met
--
compound: CCN(CC)CCCNc1ncc(C)c2[nH]c3ccc(OC)cc3c12 [Derivative No. 4]
assigned-category: Not met
--
compound: CCN(CC)CCCNc1ncc(C)c2[nH]c3ccc(O)cc3c12 [Derivative No. 7]
assigned-category: Met
--
compound: CCN(CC)CCCNc1ncc(C)c2c1c1cc(O)ccc1n2C [Derivative No. 11]
assigned-category: Met
--
compound: Cc1cnc(NCCCN(C)C)c2c3cc(O)ccc3n(C)c12 [Derivative No. 14]
assigned-category: Met

====

// values below are reported Number of survivors
Tested on: melanoma B 16
assay: Test for melanoma B 16
Format: in vivo, BDF1 hybrid mice
reported-conditions: 5 mg/kg IP, D1-D9; day D60

smiles: Cc1cnc(NCCCN(C)C)c2c3cc(O)ccc3n(C)c12
Number of survivors: 1/10
//
smiles: CCN(CC)CCCNc1ncc(C)c2[nH]c3ccc(OC)cc3c12
Number of survivors: 0/10
//
smiles: Cc1cnc(NCCCN(C)C)c2c1[nH]c1ccc(O)cc12
Number of survivors: 0/10
//
smiles: CCN(CC)CCCNc1ncc(C)c2[nH]c3ccc(O)cc3c12
Number of survivors: 0/10
//
smiles: CCN(CC)CCCNc1ncc(C)c2c1c1cc(O)ccc1n2C
Number of survivors: 3/10

====

Below: a set of entries, each annotated with reported T/C %.
System: leukemia P 388
assay: Test of leukemia P 388; IP/IP, D1-5
Assay type: in vivo, CDF1 hybrid mice
reported-conditions: 1.25 mg/kg IP, D1-D5; survival time
endpoint-label: T/C %

compound: Cc1cnc(NCCCN(C)C)c2c3cc(O)ccc3n(C)c12
value-reported: 164%

compound: CCN(CC)CCCNc1ncc(C)c2[nH]c3ccc(O)cc3c12 [Derivative No. 7]
value-reported: 153%

compound: CCN(CC)CCCNc1ncc(C)c2[nH]c3ccc(O)cc3c12 [Derivative No. 8]
value-reported: 141%

compound: CCN(CC)CCCNc1ncc(C)c2c1c1cc(O)ccc1n2C
value-reported: 152%

compound: Cc1cnc(NCCCN(C)C)c2c1[nH]c1ccc(O)cc12
value-reported: 150%

====

Test system: melanoma B 16
assay: Test for melanoma B 16
Type: in vivo, BDF1 hybrid mice
reported-conditions: 2.5 mg/kg IP, D1-D9

compound: CCN(CC)CCCNc1ncc(C)c2[nH]c3ccc(O)cc3c12 [Derivative No. 7]
Variation by weight (g): +3.6 g
--
compound: Cc1cnc(NCCCN(C)C)c2c1[nH]c1ccc(O)cc12 [Derivative No. 9]
Variation by weight (g): +0.8 g
--
compound: Cc1cnc(NCCCN(C)C)c2c3cc(O)ccc3n(C)c12 [Derivative No. 14]
Variation by weight (g): +0.1 g
--
compound: Cc1cnc(NCCCN(C)C)c2c1[nH]c1ccc(O)cc12 [Derivative No. 10]
Variation by weight (g): +1.8 g
--
compound: CCN(CC)CCCNc1ncc(C)c2c1c1cc(O)ccc1n2C [Derivative No. 11]
Variation by weight (g): +0.6 g

====

Below: a set of entries, each annotated with reported Number of survivors.
System: leukemia P 388
assay: Test of leukemia P 388; IP/IP, D1-5
Assay type: in vivo, CDF1 hybrid mice
reported-conditions: 2.5 mg/kg IP, D1-D5; day D30
endpoint-label: Number of survivors

molecule: CCN(CC)CCCNc1ncc(C)c2c1c1cc(O)ccc1n2C [Derivative No. 11]
target-entity: leukemia P 388
value-reported: 0/10

molecule: Cc1cnc(NCCCN(C)C)c2c3cc(O)ccc3n(C)c12 [Derivative No. 14]
target-entity: leukemia P 388
value-reported: 1/10

molecule: CCN(CC)CCCNc1ncc(C)c2[nH]c3ccc(O)cc3c12 [Derivative No. 7]
target-entity: leukemia P 388
value-reported: 0/10

molecule: Cc1cnc(NCCCN(C)C)c2c1[nH]c1ccc(O)cc12
target-entity: leukemia P 388
value-reported: 0/10

molecule: Cc1cnc(NCCCN(C)C)c2c3cc(O)ccc3n(C)c12 [Derivative No. 15]
target-entity: leukemia P 388
value-reported: 0/10

molecule: CCN(CC)CCCNc1ncc(C)c2c1c1cc(O)ccc1n2C [Derivative No. 12]
target-entity: leukemia P 388
value-reported: 0/10

molecule: CCN(CC)CCCNc1ncc(C)c2[nH]c3ccc(O)cc3c12 [Derivative No. 8]
target-entity: leukemia P 388
value-reported: 0/10

====

Tested on: leukemia P 388
assay: Test of leukemia P 388; IP/IP, D1-5
Assay type: in vivo, CDF1 hybrid mice
reported-conditions: 10 mg/kg IP, D1-D5

compound: CCN(CC)CCCNc1ncc(C)c2c1c1cc(O)ccc1n2C [Derivative No. 11]
Variation by weight (g): +0.2 g
--
compound: COc1ccc2c(c1)c1c(NCCCN(C)C)ncc(C)c1n2C.Cl.Cl [Derivative No. 13]
Variation by weight (g): +1.2 g
--
compound: CCN(CC)CCCNc1ncc(C)c2[nH]c3ccc(OC)cc3c12 [Derivative No. 4]
Variation by weight (g): +0.7 g
--
compound: Cc1cnc(NCCCN(C)C)c2c1[nH]c1ccc(O)cc12 [Derivative No. 10]
Variation by weight (g): +1.8 g

====

Measured Number of survivors, listed per entry for reference.
Tested on: melanoma B 16
assay: Test for melanoma B 16
Format: in vivo, BDF1 hybrid mice
reported-conditions: 1.25 mg/kg IP, D1-D9; day D60
endpoint-label: Number of survivors

compound: Cc1cnc(NCCCN(C)C)c2c1[nH]c1ccc(O)cc12 [Derivative No. 10]
target-entity: melanoma B 16
value-reported: 0/10
--
compound: CCN(CC)CCCNc1ncc(C)c2c1c1cc(O)ccc1n2C
target-entity: melanoma B 16
value-reported: 0/10
--
compound: Cc1cnc(NCCCN(C)C)c2c3cc(O)ccc3n(C)c12
target-entity: melanoma B 16
value-reported: 0/10
--
compound: Cc1cnc(NCCCN(C)C)c2c1[nH]c1ccc(O)cc12 [Derivative No. 9]
target-entity: melanoma B 16
value-reported: 1/10

====

assay: in vivo
Set-up: species or system female CDF1 hybrid mice
reported-conditions: mouse, iv, 30 mg/kg
endpoint-label: survival at 192 h

smiles: CCN(CC)CCCNc1ncc(C)c2[nH]c3ccc(O)cc3c12
value-reported: 100%

====

Test system: leukemia P 388
assay: Test of leukemia P 388; IP/IP, D1-5
Assay type: in vivo, CDF1 hybrid mice
reported-conditions: 5 mg/kg IP, D1-D5
Overview of reported Variation by weight (g) across a group of compounds:

smiles: CCN(CC)CCCNc1ncc(C)c2[nH]c3ccc(OC)cc3c12
Variation by weight (g): +1.1 g
//
smiles: COc1ccc2c(c1)c1c(NCCCN(C)C)ncc(C)c1n2C.Cl.Cl
Variation by weight (g): +1.0 g
//
smiles: CCN(CC)CCCNc1ncc(C)c2c1c1cc(O)ccc1n2C
Variation by weight (g): +0.7 g
//
smiles: CCN(CC)CCNc1ncc(C)c2c1c1cc(O)ccc1n2C.Cl.Cl
Variation by weight (g): +0.5 g
//
smiles: Cc1cnc(NCCCN(C)C)c2c1[nH]c1ccc(O)cc12
Variation by weight (g): +2.0 g
//
smiles: CCN(CC)CCCNc1ncc(C)c2[nH]c3ccc(O)cc3c12
Variation by weight (g): +0.3 g
